- Test system: Mus musculus
- Assay Text: Reduction in plasma glucose level in alloxan-induced diabetic mouse at 30 mg/kg/day, po after 15 days relative to control
- Format: functional
- Parameters: scale not given: the % may be the effect or the level left
We use 20% as the dividing line for Activity: on or above the line is Criterion met, below is Criterion not met.

Below are worked cases with known answers.
1) Cc1ccc(CN2C(=O)S/C(=C\c3ccc(F)cc3)C2=O)cc1 = Criterion not met
2) Cc1ccc(CN2C(=O)S/C(=C\c3ccc(Cl)cc3)C2=O)cc1 = Criterion met

Q: hey, is Activity for this one >= 20%? COc1ccc(/C=C2\SC(=O)N(Cc3ccc(C)cc3)C2=O)c(OC)c1
Ans: Criterion met

Q: hey, is Activity for this one >= 20%? COc1ccc(/C=C2\SC(=O)N(Cc3ccc(C)cc3)C2=O)cc1
Ans: Criterion met

Q: hey, is Activity for this one >= 20%? Cc1ccc(CN2C(=O)S/C(=C\c3ccc([N+](=O)[O-])cc3)C2=O)cc1
Ans: Criterion not met

Q: hey, is Activity for this one >= 20%? Cc1ccc(CN2C(=O)S/C(=C\c3ccc(N(C)C)cc3)C2=O)cc1
Ans: Criterion met

Q: hey, is Activity for this one >= 20%? CN(CCOc1ccc(CC2SC(=O)NC2=O)cc1)c1ccccn1 (centres undefined)
Ans: Criterion not met

Q: hey, is Activity for this one >= 20%? Cc1ccc(CN2C(=O)S/C(=C\c3ccccc3Cl)C2=O)cc1
Ans: Criterion met

Q: hey, is Activity for this one >= 20%? Cc1ccc(CN2C(=O)S/C(=C\c3ccc(O)cc3)C2=O)cc1
Ans: Criterion met
